Test system: HIV (H9/HTLV-IIIB) in C8166 cells
Procedure Details: plaque assay: inhibition of syncytia formation in HIV-infected C8166 cells
Assay type: cell-based
Condition Description: Human immunodeficiency virus 1, IIIB, Table IV, 72 h, 50% inhibition of syncytia formation
pEC50: −log10 of the molar value.
Binary call on pEC50: 1 from 7 upward, -1 beneath that.

>>> category("CC(C)(C)NC(=O)[C@@H]1C[C@H](Sc2ccccc2)CCN1C[C@@H](O)[C@H](Cc1ccccc1)NC(=O)[C@H](CC(N)=O)NC(=O)OCc1ccccc1 [Table IV, entry 9]")
1
>>> category("CC(C)[C@H](NC(=O)OCc1ccccc1)C(=O)N[C@@H](Cc1ccccc1)[C@H](O)CN1CC[C@@H](Sc2ncccn2)C[C@H]1C(=O)NC(C)(C)C [Table IV, entry 35]")
1
>>> category("CC(C)(C)NC(=O)[C@@H]1C[C@H](Sc2ccccn2)CCN1C[C@@H](O)[C@H](Cc1ccccc1)NC(=O)OCc1ccccc1 [Table IV, entry 28]")
-1
>>> category("CC(C)[C@H](NC(=O)OCc1ccccc1)C(=O)N[C@@H](Cc1ccccc1)[C@H](O)CN1CC[C@@H](C2CCCCC2)C[C@H]1C(=O)NC(C)(C)C [Table IV, entry 19]")
-1

* * *

Listing of entries alongside the reported IC50.
Target: HIV protease (Human immunodeficiency virus type 1 group M subtype B, UniProt P04585)
Construct: HIV protease was expressed in E. coli; made in house; host or cells: E. coli (plasmid pBRT1 prt+)
Procedure Details: Recombinant HIV Protease HPLC Assay
Assay type: biochemical
Condition Description: Table VI; 37°, 30 min, pH 5.5
Recorded Metric: IC50 (nM)

>>> number("Cc1cc(C)nc(S[C@@H]2CCN(C[C@@H](O)[C@H](Cc3ccccc3)NC(=O)[C@H](CC(N)=O)NC(=O)c3ccc4ccccc4n3)[C@H](C(=O)NC(C)(C)C)C2)n1 [Table VI, entry 2]")
2.2
>>> number("CC(C)(C)NC(=O)[C@@H]1C[C@H](S(=O)(=O)c2ccncc2)CCN1C[C@@H](O)[C@H](Cc1ccccc1)NC(=O)[C@@H](NC(=O)c1ccc2ccccc2n1)C(C)(C)C [Table VI, entry 7]")
2.1
>>> number("CC(C)(C)NC(=O)[C@@H]1C[C@H](SCc2cccnc2)CCN1C[C@@H](O)[C@H](Cc1ccccc1)NC(=O)[C@@H](NC(=O)c1ccc2ccccc2n1)C(C)(C)C [Table VI, entry 5]")
2.2

* * *

Target: HIV protease (Human immunodeficiency virus type 1 group M subtype B)
Construct: HIV protease was expressed in E. coli; made in house; host or cells: E. coli (plasmid pBRT1 prt+)
Procedure Details: Recombinant HIV Protease HPLC Assay
Format: biochemical
Condition Description: Table IV; 37°, 30 min, pH 5.5
pIC50: −log10 of the molar value.
Recorded Metric: pIC50

>>> number("CC(C)[C@H](NC(=O)OCc1ccccc1)C(=O)N[C@@H](Cc1ccc(F)cc1)[C@H](O)CN1CC[C@@H](Sc2ccccc2)C[C@H]1C(=O)NC(C)(C)C")
8.46
>>> number("CC(C)(C)NC(=O)[C@@H]1C[C@H](S(=O)(=O)c2ccccc2)CCN1C[C@@H](O)[C@H](Cc1ccccc1)NC(=O)OCc1ccccc1")
7.52
>>> number("CC(C)(C)NC(=O)[C@@H]1C[C@H](Sc2ccccc2)CCN1C[C@@H](O)[C@H](Cc1ccc(F)cc1)NC(=O)OCc1ccccc1")
8.02
>>> number("CC(C)[C@H](NC(=O)OCc1ccccc1)C(=O)N[C@@H](Cc1ccccc1)[C@H](O)CN1CC[C@@H](c2ccccc2)C[C@H]1C(=O)NC(C)(C)C")
8.51
>>> number("CC(C)[C@H](NC(=O)OCc1ccccc1)C(=O)N[C@@H](Cc1ccccc1)[C@H](O)CN1CC[C@@H](Oc2ccccn2)C[C@H]1C(=O)NC(C)(C)C")
8.74

* * *

Target: HIV protease (Human immunodeficiency virus type 1 group M subtype B, UniProt P04585)
Construct: HIV protease was expressed in E. coli; made in house; host or cells: E. coli (plasmid pBRT1 prt+)
Procedure Details: Recombinant HIV Protease HPLC Assay
Type: biochemical
Condition Description: Table V; 37°, 30 min, pH 5.5
Recorded Metric: IC50 (nM)

>>> number("Cc1cc(O[C@@H]2CCN(C[C@@H](O)[C@H](Cc3ccccc3)NC(=O)[C@@H](NC(=O)c3ccc4ccccc4n3)C(C)C)[C@H](C(=O)NC(C)(C)C)C2)nc(C)n1 [Table V, entry 13]")
3.6
>>> number("Cc1ccnc(O[C@@H]2CCN(C[C@@H](O)[C@H](Cc3ccccc3)NC(=O)[C@@H](NC(=O)c3ccc4ccccc4n3)C(C)C)[C@H](C(=O)NC(C)(C)C)C2)n1 [Table V, entry 12]")
4.5
>>> number("CC(C)[C@H](NC(=O)c1ccc2ccccc2n1)C(=O)N[C@@H](Cc1ccccc1)[C@H](O)CN1CC[C@@H](Oc2ccc(F)cc2)C[C@H]1C(=O)NC(C)(C)C [Table V, entry 15]")
2.6
>>> number("CC(C)[C@H](NC(=O)c1ccc2ccccc2n1)C(=O)N[C@@H](Cc1ccccc1)[C@H](O)CN1CC[C@@H](Sc2ncccn2)C[C@H]1C(=O)NC(C)(C)C [Table V, entry 1]")
3.6
>>> number("CC(C)[C@H](NC(=O)c1ccc2ccccc2n1)C(=O)N[C@@H](Cc1ccccc1)[C@H](O)CN1CC[C@@H](S(=O)(=O)Cc2ccccn2)C[C@H]1C(=O)NC(C)(C)C [Table V, entry 17]")
2.4
>>> number("CC(C)[C@H](NC(=O)c1ccc2ccccc2n1)C(=O)N[C@@H](Cc1ccccc1)[C@H](O)CN1CC[C@@H](S(=O)(=O)c2ccccn2)C[C@H]1C(=O)NC(C)(C)C [Table V, entry 20]")
1.7
>>> number("CC(C)[C@H](NC(=O)c1ccc2ccccc2n1)C(=O)N[C@@H](Cc1ccccc1)[C@H](O)CN1CC[C@@H](SCc2ccccn2)C[C@H]1C(=O)NC(C)(C)C [Table V, entry 9]")
4.2
>>> number("CC(C)[C@H](NC(=O)c1ccc2ccccc2n1)C(=O)N[C@@H](Cc1ccccc1)[C@H](O)CN1CC[C@@H](Sc2ccccn2)C[C@H]1C(=O)NC(C)(C)C [Table V, entry 6]")
1.9
>>> number("CC(C)[C@H](NC(=O)c1ccc2ccccc2n1)C(=O)N[C@@H](Cc1ccccc1)[C@H](O)CN1CC[C@@H](OCc2ccccn2)C[C@H]1C(=O)NC(C)(C)C [Table V, entry 3]")
3.9
>>> number("CC(C)[C@H](NC(=O)c1ccc2ccccc2n1)C(=O)N[C@@H](Cc1ccccc1)[C@H](O)CN1CC[C@@H](Oc2ncccn2)C[C@H]1C(=O)NC(C)(C)C [Table V, entry 10]")
3.2
>>> number("CC(C)[C@H](NC(=O)c1ccc2ccccc2n1)C(=O)N[C@@H](Cc1ccccc1)[C@H](O)CN1CC[C@@H](S(=O)(=O)c2ccncc2)C[C@H]1C(=O)NC(C)(C)C [Table V, entry 21]")
1.7
>>> number("Cc1cc(C)nc(S[C@@H]2CCN(C[C@@H](O)[C@H](Cc3ccccc3)NC(=O)[C@@H](NC(=O)c3ccc4ccccc4n3)C(C)C)[C@H](C(=O)NC(C)(C)C)C2)n1 [Table V, entry 4]")
2.7
>>> number("CC(C)[C@H](NC(=O)c1ccc2ccccc2n1)C(=O)N[C@@H](Cc1ccccc1)[C@H](O)CN1CC[C@@H](OCc2ccncc2)C[C@H]1C(=O)NC(C)(C)C [Table V, entry 16]")
4.2
>>> number("CC(C)[C@H](NC(=O)c1ccc2ccccc2n1)C(=O)N[C@@H](Cc1ccccc1)[C@H](O)CN1CC[C@@H](OCc2cccnc2)C[C@H]1C(=O)NC(C)(C)C [Table V, entry 24]")
3.7
>>> number("Cc1ccnc(S[C@@H]2CCN(C[C@@H](O)[C@H](Cc3ccccc3)NC(=O)[C@@H](NC(=O)c3ccc4ccccc4n3)C(C)C)[C@H](C(=O)NC(C)(C)C)C2)n1 [Table V, entry 23]")
2.8
>>> number("CC(C)[C@H](NC(=O)c1ccc2ccccc2n1)C(=O)N[C@@H](Cc1ccccc1)[C@H](O)CN1CC[C@@H](Sc2ccncc2)C[C@H]1C(=O)NC(C)(C)C [Table V, entry 5]")
1.5
>>> number("CC(C)[C@H](NC(=O)c1ccc2ccccc2n1)C(=O)N[C@@H](Cc1ccccc1)[C@H](O)CN1CC[C@@H](SCc2ccncc2)C[C@H]1C(=O)NC(C)(C)C [Table V, entry 2(S)]")
2.8
>>> number("CC(C)[C@H](NC(=O)c1ccc2ccccc2n1)C(=O)N[C@@H](Cc1ccccc1)[C@H](O)CN1CC[C@@H](Oc2ccccc2)C[C@H]1C(=O)NC(C)(C)C [Table V, entry 7]")
3.4
>>> number("CC(C)[C@H](NC(=O)c1ccc2ccccc2n1)C(=O)N[C@@H](Cc1ccccc1)C(O)CN1CC[C@@H](S(=O)(=O)c2ccccc2)CC1C(=O)NC(C)(C)C (some centres unmarked) [Table V, entry 14]")
2.9
>>> number("CC(C)[C@H](NC(=O)c1ccc2ccccc2n1)C(=O)N[C@@H](Cc1ccccc1)[C@H](O)CN1CC[C@@H](S(=O)(=O)Cc2ccncc2)C[C@H]1C(=O)NC(C)(C)C [Table V, entry 19]")
4.6
